// provenance: ChEMBL document CHEMBL1149105

Target: Sodium channel protein type 4 subunit alpha (Homo sapiens)
Experiment: Affinity for resting human SkM1 sodium channel expressed in HEK293 cells
Assay type: cell-based
Sequence (P35499 whole entry, looked up): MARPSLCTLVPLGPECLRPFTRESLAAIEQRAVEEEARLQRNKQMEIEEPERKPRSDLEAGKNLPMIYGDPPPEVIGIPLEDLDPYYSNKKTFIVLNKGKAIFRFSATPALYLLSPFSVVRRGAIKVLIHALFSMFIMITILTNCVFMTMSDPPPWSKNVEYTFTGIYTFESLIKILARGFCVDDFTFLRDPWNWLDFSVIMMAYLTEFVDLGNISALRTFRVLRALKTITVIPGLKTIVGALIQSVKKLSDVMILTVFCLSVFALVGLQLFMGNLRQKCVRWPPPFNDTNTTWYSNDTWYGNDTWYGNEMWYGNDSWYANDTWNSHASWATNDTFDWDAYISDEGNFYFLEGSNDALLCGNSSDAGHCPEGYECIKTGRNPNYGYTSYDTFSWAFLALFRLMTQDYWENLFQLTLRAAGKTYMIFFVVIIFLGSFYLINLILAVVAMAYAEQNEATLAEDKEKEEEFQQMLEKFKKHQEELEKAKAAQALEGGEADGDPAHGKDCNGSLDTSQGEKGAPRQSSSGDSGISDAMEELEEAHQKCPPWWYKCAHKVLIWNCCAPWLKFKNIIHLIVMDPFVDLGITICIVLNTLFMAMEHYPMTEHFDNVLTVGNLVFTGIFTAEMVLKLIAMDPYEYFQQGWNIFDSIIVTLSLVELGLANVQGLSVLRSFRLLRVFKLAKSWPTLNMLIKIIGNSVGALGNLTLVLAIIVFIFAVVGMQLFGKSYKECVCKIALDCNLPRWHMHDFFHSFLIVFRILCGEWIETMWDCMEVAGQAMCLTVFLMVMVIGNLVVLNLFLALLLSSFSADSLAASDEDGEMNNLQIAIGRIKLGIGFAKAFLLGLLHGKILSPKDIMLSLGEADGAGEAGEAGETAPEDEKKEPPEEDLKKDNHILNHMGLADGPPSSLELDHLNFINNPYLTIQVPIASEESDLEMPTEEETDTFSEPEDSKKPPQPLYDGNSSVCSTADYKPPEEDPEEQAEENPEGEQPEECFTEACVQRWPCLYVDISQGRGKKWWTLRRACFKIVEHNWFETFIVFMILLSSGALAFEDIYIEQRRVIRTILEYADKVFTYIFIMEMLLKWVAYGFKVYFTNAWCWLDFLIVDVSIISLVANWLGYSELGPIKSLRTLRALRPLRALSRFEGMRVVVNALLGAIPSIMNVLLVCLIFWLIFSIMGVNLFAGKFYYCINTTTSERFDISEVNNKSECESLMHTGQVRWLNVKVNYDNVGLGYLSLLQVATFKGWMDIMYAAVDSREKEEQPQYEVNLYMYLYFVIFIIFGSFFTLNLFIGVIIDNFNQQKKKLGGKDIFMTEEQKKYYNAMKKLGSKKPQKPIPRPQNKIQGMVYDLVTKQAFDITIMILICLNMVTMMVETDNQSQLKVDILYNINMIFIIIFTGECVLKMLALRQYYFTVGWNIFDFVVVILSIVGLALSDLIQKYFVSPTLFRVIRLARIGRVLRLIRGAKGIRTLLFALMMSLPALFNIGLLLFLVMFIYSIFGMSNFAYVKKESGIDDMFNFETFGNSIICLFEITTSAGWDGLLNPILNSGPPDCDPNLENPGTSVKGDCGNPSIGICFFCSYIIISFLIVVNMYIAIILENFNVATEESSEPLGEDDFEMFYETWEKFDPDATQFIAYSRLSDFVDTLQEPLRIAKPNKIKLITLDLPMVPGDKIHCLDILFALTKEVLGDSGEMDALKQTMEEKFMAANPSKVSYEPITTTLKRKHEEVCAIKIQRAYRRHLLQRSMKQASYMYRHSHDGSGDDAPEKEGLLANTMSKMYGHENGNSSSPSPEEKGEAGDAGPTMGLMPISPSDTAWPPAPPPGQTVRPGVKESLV
observable: Kr (µM)

Examples from the recorded data:
compound: NC(=O)n1ccc(-c2ccc(Oc3ccc(F)cc3F)cc2)n1
readout-unit: µM
Kr: 10
//
compound: NC(=O)n1ccc(-c2ccc(Oc3ccc(F)cc3)cc2)n1
readout-unit: µM
Kr: 6
//
compound: CN(C)C(=O)n1ccc(-c2ccc(Oc3ccc(F)cc3)cc2)n1
readout-unit: µM
Kr: 26
//
compound: Fc1ccc(Oc2ccc(-c3cc[nH]n3)cc2)cc1
readout-unit: µM
Kr: 17
//
compound: NC(=O)N/N=C/c1ccc(Oc2ccc(F)cc2)cc1
readout-unit: µM
Kr: 27
//
compound: Nc1nnc(-c2cccc(Cl)c2Cl)c(N)n1
readout-unit: µM
Kr: 1440

I: COc1ccc(-c2cc[nH]n2)cc1
II: c1ccc(-c2cc[nH]n2)cc1
Q: Hi there, can you help? I need to know whether I or II has lower measured Kr. Please indicate the selected item by its label.
A: I
(I: 710 µM, II: 1110 µM)

###

Target: Sodium channel protein type 4 subunit alpha (Homo sapiens, UniProt P35499)
Assay: Relative affinity for inactivated and resting human SkM1 expressed in HEK293 cells
Type: cell-based
observable: Ratio

compound: NC(=O)n1ccc(-c2ccc(Oc3ccc([N+](=O)[O-])cc3)cc2)n1
Ratio: 226

1: NC(=O)n1ccc(-c2ccc(Oc3ccc(F)cc3F)cc2)n1
2: NC(=O)N/N=C/c1ccc(Oc2ccc(F)cc2)cc1
Q: Please indicate which item has the smaller measured Ratio: 1 versus 2 Please respond with the label that marks your chosen entry.
A: 2
(2: 150, 1: 400)

###

Target: Sodium channel protein type 4 subunit alpha (Homo sapiens, UniProt P35499)
Experiment: Affinity for resting human SkM1 sodium channel expressed in HEK293 cells
Format: cell-based
observable: Kr (µM)

compound: CNC(=O)n1ccc(-c2ccc(Oc3ccc(F)cc3)cc2)n1
Kr / µM: 21
//
compound: O=C1NC(=O)C(c2ccccc2)(c2ccccc2)N1 [PHENYTOIN]
Kr / µM: 620
//
compound: Cn1ccc(-c2ccc(Oc3ccc(F)cc3)cc2)n1
Kr / µM: 21
//
compound: NC(=O)n1ccc(-c2ccc(Oc3ccccc3)cc2)n1
Kr / µM: 5

a: c1ccc(Oc2ccc(-c3cc[nH]n3)cc2)cc1
b: NC(=O)n1ccc(-c2ccc(Oc3ccc([N+](=O)[O-])cc3)cc2)n1
Q: Please let me know which one, a or b , has a lower measured Kr value. Please identify the chosen entry by its label.
A: b

###

Target: Sodium channel protein type 4 subunit alpha (Homo sapiens, UniProt P35499)
Experiment: Affinity for inactive human SkM1 sodium channel expressed in HEK293 cells
Sequence (P35499 whole entry): as the sequence (P35499 whole entry, looked up) above
pKi: −log10 of the molar value.
observable: pKi

A: NC(=O)N1c2ccccc2C=Cc2ccccc21 [CARBAMAZEPINE]
B: Nc1nnc(-c2cccc(Cl)c2Cl)c(N)n1 [LAMOTRIGINE]
C: NC(=O)n1ccc(-c2ccc(Oc3ccc([N+](=O)[O-])cc3)cc2)n1
D: CN(C)C(=O)n1ccc(-c2ccc(Oc3ccc(F)cc3)cc2)n1
Q: List these items ordered by pKi, big to small. Field: ranking. Enter the labels in the order requested.
A: C, D, B, A

###

Target: Sodium channel protein type 4 subunit alpha (Homo sapiens, UniProt P35499)
Test: Relative affinity for inactivated and resting human SkM1 expressed in HEK293 cells
Assay type: cell-based
observable: Ratio

Known Ratio results, listed for orientation:
molecule: Cn1ccc(-c2ccc(Oc3ccc(F)cc3)cc2)n1
Ratio: 30

molecule: NC(=O)N1c2ccccc2C=Cc2ccccc21 [CARBAMAZEPINE]
Ratio: 14

molecule: c1ccc(Oc2ccc(-c3cc[nH]n3)cc2)cc1
Ratio: 67

molecule: NC(=O)n1ccc(-c2ccc(Oc3ccccc3)cc2)n1
Ratio: 143

molecule: CN(C)C(=O)n1ccc(-c2ccc(Oc3ccc(F)cc3)cc2)n1
Ratio: 76

a: CNC(=O)n1ccc(-c2ccc(Oc3ccc(F)cc3)cc2)n1
b: Nc1nnc(-c2cccc(Cl)c2Cl)c(N)n1
c: c1ccc(-c2cc[nH]n2)cc1
d: O=C1NC(=O)C(c2ccccc2)(c2ccccc2)N1
e: COc1ccc(-c2cc[nH]n2)cc1
Q: Arrange by Ratio, high to low. Returns: the labels arranged in the requested order.
A: a, b, d, c, e

A: NC(=O)n1ccc(-c2ccc(Oc3ccc(F)cc3)cc2)n1
B: Fc1ccc(Oc2ccc(-c3cc[nH]n3)cc2)cc1
Q: Lab note: check whether A or B shows the higher recorded Ratio. I would appreciate it if you answered with the label of your choice.
A: A

###

Biological target: Sodium channel protein type 4 subunit alpha (Homo sapiens, UniProt P35499)
Test: Affinity for inactive human SkM1 sodium channel expressed in HEK293 cells
observable: Ki (nM)

Examples with their reported Ki follow.
compound: NC(=O)n1ccc(-c2ccc(Oc3ccc(F)cc3F)cc2)n1
readout-unit: nM
recorded-result: 25

compound: CNC(=O)n1ccc(-c2ccc(Oc3ccc(F)cc3)cc2)n1
readout-unit: nM
recorded-result: 150

compound: c1ccc(Oc2ccc(-c3cc[nH]n3)cc2)cc1
readout-unit: nM
recorded-result: 240

compound: Fc1ccc(Oc2ccc(-c3cc[nH]n3)cc2)cc1
readout-unit: nM
recorded-result: 200

compound: NC(=O)n1ccc(-c2ccc(Oc3ccccc3)cc2)n1
readout-unit: nM
recorded-result: 35

a: O=C1NC(=O)C(c2ccccc2)(c2ccccc2)N1
b: NC(=O)n1ccc(-c2ccc(Oc3ccc(F)cc3)cc2)n1
Q: Of a and b , whose reported Ki is the larger number? Refer to your chosen item by its label in the answer.
A: a
(a: 24000 nM, b: 31 nM)

A: NC(=O)N/N=C/c1ccc(Oc2ccc(F)cc2)cc1
B: c1ccc(-c2cc[nH]n2)cc1
C: Cn1ccc(-c2ccc(Oc3ccc(F)cc3)cc2)n1
Q: Descending sort on Ki required. Use the labels to give the requested order.
A: B, C, A
(B: 61000 nM, C: 690 nM, A: 180 nM)
